# Target: human LPA3 (Homo sapiens)
# Sequence (Q9UBY5 whole entry): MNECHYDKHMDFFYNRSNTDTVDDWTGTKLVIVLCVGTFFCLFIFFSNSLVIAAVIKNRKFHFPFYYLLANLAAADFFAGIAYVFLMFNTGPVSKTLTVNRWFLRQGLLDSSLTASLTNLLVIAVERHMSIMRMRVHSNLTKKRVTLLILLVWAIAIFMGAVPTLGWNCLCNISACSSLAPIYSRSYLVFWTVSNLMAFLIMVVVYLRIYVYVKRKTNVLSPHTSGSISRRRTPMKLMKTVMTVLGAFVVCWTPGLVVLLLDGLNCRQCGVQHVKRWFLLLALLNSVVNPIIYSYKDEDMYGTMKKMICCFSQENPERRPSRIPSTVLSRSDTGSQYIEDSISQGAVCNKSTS
# Test Name: antagonism of LPA-evoked GTP[γ35S] binding at LPA3
# Condition Label: antagonism of LPA-evoked GTP[γ35S] binding
Experimental Endpoint: IC50 (nM)

Worked cases, IC50 given:
                                   compound  unit_of_measure  result_value
0  CCCCCCCC/C=C\CCCCCCCC(=O)N[C@@H](COP(=O)(O)O)Cc1ccc(OCc2ncc(C)c(OC)c2C)cc1 [Compound 57l]               nM            39
1  CCCCCCCC/C=C\CCCCCCCC(=O)N[C@H](COP(=O)(O)O)Cc1ccc(OCc2ncc(C)c(OC)c2C)cc1 [Compound 57m]               nM           561
2  CCCCCCCC/C=C\CCCCCCCC(=O)N[C@H](COP(=O)(O)O)Cc1ccc(OCc2cccc(OC)n2)cc1 [Compound 57f]               nM          1090

A = CCCCCCCC/C=C\CCCCCCCC(=O)N[C@@H](CCP(=O)(O)O)Cc1ccc(OCc2ncc(C)c(OC)c2C)cc1 [Compound 63d]
B = CCCCCCCC/C=C\CCCCCCCC(=O)N[C@@H](COP(=O)(O)O)Cc1ccc(OCc2ccc3ccccc3n2)cc1 [Compound 57n]
query: Higher IC50: A or B ? Please indicate the selected item by its label.
result: B
(B: 533 nM, A: 150 nM)

I = CCCCCCCC/C=C\CCCCCCCC(=O)N[C@H](COP(=O)(O)O)Cc1ccc(OCc2cc(OC)c3ccccc3n2)cc1 [Compound 57p]
II = CCCCCCCCC=CCCCCCCCC(=O)NC(COP(=O)(O)O)Cc1ccc(OCc2cc(OCC(F)(F)F)ccn2)cc1 (stereo not shown) [Compound 57i]
query: Higher IC50: I or II ? Please indicate the selected item by its label.
result: I

---

# Target: LPA1 receptor (Mus musculus)
# Test Name: antagonism of LPA-evoked GTP[γ35S] binding at LPA1
# Condition Label: antagonism of LPA-evoked GTP[γ35S] binding
pIC50: −log10 of the molar value.
Experimental Endpoint: pIC50

In [3]: df
Out[3]:
                                   compound  experimental_endpoint  result_value
0  CCCCCCCC/C=C\CCCCCCCC(=O)N[C@H](COP(=O)(O)O)C(=O)c1ccc(OCc2ccccc2)cc1 [Compound 39b]                  pIC50          5.60

1 = CCCCCCCC/C=C\CCCCCCCC(=O)N[C@H](COP(=O)(O)O)Cc1ccc(OCc2ncc(C)c(OC)c2C)cc1 [Compound 57m]
2 = CCCCCCCC/C=C\CCCCCCCC(=O)N[C@@H](COP(=O)(O)O)Cc1ccc(OCc2cc(OCCC)ccn2)cc1 [Compound 57j]
3 = CCCCCCCCC=CCCCCCCCC(=O)NC(COP(=O)(O)O)Cc1ccc(OCc2cc(OCC(F)(F)F)ccn2)cc1 (stereo not shown) [Compound 57i]
query: Thanks in advance: please rank these 3 entries by pIC50, highest to lowest. Form entry: ranked labels (order as requested).
result: 3, 2, 1

---

# Target: human LPA2 (Homo sapiens, UniProt Q9HBW0)
# Sequence (Q9HBW0 whole entry): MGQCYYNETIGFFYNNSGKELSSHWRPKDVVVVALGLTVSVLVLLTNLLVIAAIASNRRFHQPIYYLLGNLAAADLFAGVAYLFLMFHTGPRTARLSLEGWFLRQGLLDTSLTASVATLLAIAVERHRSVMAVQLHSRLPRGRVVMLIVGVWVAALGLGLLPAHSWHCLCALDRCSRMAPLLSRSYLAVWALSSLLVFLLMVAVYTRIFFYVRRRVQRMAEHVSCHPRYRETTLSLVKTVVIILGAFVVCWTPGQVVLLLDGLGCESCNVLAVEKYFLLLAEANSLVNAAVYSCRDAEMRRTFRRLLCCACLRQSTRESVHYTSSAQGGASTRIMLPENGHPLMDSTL
# Test Name: GTP[γ35S] binding assay, agonist activity at LPA2
# Condition Label: transfected HEK293T cell membranes
Experimental Endpoint: EC50 (nM)

a = CCCCCCCC/C=C\CCCCCCCC(=O)N[C@H](C)COP(=O)(O)O
b = CCCCCCCC/C=C\CCCCCCCC(=O)N[C@H](CC)COP(=O)(O)O
query: Hi! Which is lower in terms of EC50, the first one a or the second one b ? Please indicate the selected item by its label.
result: a

---

# Target: UniProt Q9UBY5
# Test Name: GTP[γ35S] binding assay, agonist activity at LPA3
# Condition Label: transfected HEK293T cell membranes
Experimental Endpoint: EC50 (µM)

>>> print(df.to_string())
                                smiles_data  unit_of_measure  result_value
0  CCCCCCCC/C=C\CCCCCCCC(=O)N[C@H](CN)COP(=O)(O)O               µM         0.684

A = CCCCCCCC/C=C\CCCCCCCC(=O)N[C@H](CC)COP(=O)(O)O
B = CCCCCCCC/C=C\CCCCCCCC(=O)N[C@H](C)COP(=O)(O)O
query: Hi! Which is lower in terms of EC50, the first one A or the second one B ? Please indicate the selected item by its label.
result: B

---

# Target: LPA1 receptor (Mus musculus)
# Test Name: antagonism of LPA-evoked GTP[γ35S] binding at LPA1
# Condition Label: antagonism of LPA-evoked GTP[γ35S] binding
Experimental Endpoint: IC50 (nM)

P = CCCCCCCC/C=C\CCCCCCCC(=O)N[C@@H](COP(=O)(O)O)Cc1ccc(OCc2ncc(C)c(OC)c2C)cc1 [Compound 57l]
Q = CCCCCCCC/C=C\CCCCCCCC(=O)N[C@@H](COP(=O)(O)O)Cc1ccc(OCc2ccc3ccccc3n2)cc1 [Compound 57n]
R = CCCCCCCC/C=C\CCCCCCCC(=O)N[C@@H](COP(=O)(O)O)Cc1ccc(OCc2cc(OCC)ccn2)cc1 [Compound 57h]
query: Task for the reader: rank each entry by its IC50, from the minimum upward. Form entry: ranked labels (order as requested).
result: P, R, Q
(P: 62 nM, R: 143 nM, Q: 1430 nM)

---

# Target: human LPA3 (Homo sapiens)
# Test Name: antagonism of LPA-evoked GTP[γ35S] binding at LPA3
# Condition Label: antagonism of LPA-evoked GTP[γ35S] binding
Experimental Endpoint: IC50

>>> print(df.to_string())
                                   molecule  experimental_endpoint  result_value
0  CCCCCCCC/C=C\CCCCCCCC(=O)N[C@@H](COP(=O)(O)O)C(=O)c1ccc(OCc2ccccc2)cc1 [Compound 39a]                   IC50       > 10 µM
1  CCCCCCCC/C=C\CCCCCCCC(=O)N[C@H](COP(=O)(O)O)C(=O)c1ccc(OCc2ccccc2)cc1 [Compound 39b]                   IC50       > 10 µM

--- query ---
query: Query: IC50; subject: CCCCCCCC/C=C\CCCCCCCC(=O)N[C@@H](COP(=O)(O)O)Cc1ccc(OCc2cc(OCC)ccn2)cc1 [Compound 57h]
result: 0.039 µM

---

# Target: LPA1 receptor (Mus musculus, UniProt P61793)
# Sequence (P61793 whole entry): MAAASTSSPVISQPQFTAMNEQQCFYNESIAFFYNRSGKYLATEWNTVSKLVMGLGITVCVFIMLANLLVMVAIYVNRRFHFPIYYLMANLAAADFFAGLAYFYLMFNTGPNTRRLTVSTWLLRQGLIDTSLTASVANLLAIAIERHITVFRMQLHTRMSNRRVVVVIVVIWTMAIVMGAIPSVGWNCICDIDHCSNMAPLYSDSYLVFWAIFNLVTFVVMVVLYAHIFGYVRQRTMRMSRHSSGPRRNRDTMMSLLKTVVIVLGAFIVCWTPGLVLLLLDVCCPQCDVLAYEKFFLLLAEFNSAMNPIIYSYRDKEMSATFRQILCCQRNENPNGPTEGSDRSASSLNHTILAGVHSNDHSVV
# Test Name: antagonism of LPA-evoked GTP[γ35S] binding at LPA1
# Condition Label: antagonism of LPA-evoked GTP[γ35S] binding
pIC50: −log10 of the molar value.
Experimental Endpoint: pIC50

                                   compound  experimental_endpoint  result_value
0  CCCCCCCC/C=C\CCCCCCCC(=O)N[C@@H](CCP(=O)(O)O)Cc1ccc(OCc2ncc(C)c(OC)c2C)cc1 [Compound 63d]                  pIC50        < 5.00
1  CCCCCCCC/C=C\CCCCCCCC(=O)N[C@@H](COP(=O)(O)O)C(=O)c1ccc(OCc2ccccc2)cc1 [Compound 39a]                  pIC50        < 5.00

--- query ---
query: Query: pIC50; subject: CCCCCCCC/C=C\CCCCCCCC(=O)N[C@H](COP(=O)(O)O)Cc1ccc(OCc2cccc(OC)n2)cc1 [Compound 57f]
result: < 5.00

---

# Target: human LPA2 (Homo sapiens, UniProt Q9HBW0)
# Test Name: GTP[γ35S] binding assay, agonist activity at LPA2
# Type: biochemical
# Design: expressed in transfected cells; host or cells: HEK293T cells (membranes)
# Condition Label: transfected HEK293T cell membranes
# Protocol: The appropriate receptor plasmid DNA (encoding mouse LPA1, human LPA2 or human LPA3) was mixed with equal amounts of expression plasmids (pcDNA3) encoding a mutated (C351F) rat Gi2a, cow β1, and γ2 proteins and these DNAs were used to transfect monolayers of HEK293T cells (where ‘T’ indicates expression of the SV-40 virus large T antigen) using the calcium phosphate precipitate method. After about 60 hours, cells were harvested, membranes were prepared, aliquoted and stored at −70° C. until use. […]
Listing: EC50 of selected compounds

Worked cases, EC50 given:
>>> print(df.to_string())
                                smiles_data  experimental_endpoint  result_value
0  CCCCCCCC/C=C\CCCCCCCC(=O)N[C@@H](CN)COP(=O)(O)O                   EC50        > 5 µM
1  CCCCCCCC/C=C\CCCCCCCC(=O)N[C@H](CN)COP(=O)(O)O                   EC50     0.0503 µM

--- query ---
query: # returns recorded EC50 (system: human LPA2 (Homo sapiens, UniProt Q9HBW0)) for CCCCCCCC/C=C\CCCCCCCC(=O)N[C@@H](C)COP(=O)(O)O
result: > 5 µM
